STUDY TARGET: ESO157 A1 peptide (…)/HLA-A*02:01 complex on T2 cells (human)
EXPERIMENT SUMMARY: FACS, peptide-pulsed T2 cells
Documented MFI across a set of binders

- BINDER: "phage clone #66, anti-ESO157/HLA-A*02:01 scFv displayed on phage (scFv, V domains shown) VH: EVQLVESGAEVKRPGASVKVSCKASGYTFTSYGISWVRQAPGQGLEWMGRFIPNLNKGNSAHKFEGRVSFTADKFTNTAYMELRGLKSDDTAVYYCARGDYGSDQWGQGTLVTVSS VL: QSVLTQPPSVSGAPGQRVTISCTGSSSNIGAGYDVHWYQQLPGTAPKLLIYGNSNRPSGVPDRFSGSKSGTSASLAITGLQAEDEADYYCQSYDSSLSGSWVFGGGTKLTVLG"
  MFI: 82400
- BINDER: "phage clone #52, anti-ESO157/HLA-A*02:01 scFv displayed on phage (scFv, V domains shown) VH: QVQLVQSGAEVKKPGASVKVSCKASGYTFTSYGISWVRQAPGQGLEWMGWISAYNGNTNYAQKLQGRVTMTTDTSTSTAYMELRSLRSDDTAVYYCARYSGYYAGDSWGQGTLVTVSS VL: QSVLTQPPSVSGAPGQRVTISCTGSSSNIGAGYDVHWYQQLPGTAPKLLIYGDTNRPSGVPDRISGSKSGTSASLAITGLQAEDEADYYCQSYDSNLYTYVFGTGTKVTVLG"
  MFI: 14900
- BINDER: "phage clone #148, anti-ESO157/HLA-A*02:01 scFv displayed on phage (scFv, V domains shown) VH: EVQLVQSGAEVKKPGASVKVSCKASGGTFSSYAISWVRQAPGQGLEWMGGIIPIFGTANYAQKFQGRVTITADKSTSTAYMELSSLRSEDTAVYYCARSYWSWTPYDPWGQGTLVTVSS VL: LPVLTQPPSVSVAPGKTARITCGGNNIGSKSVHWYQQKPGQAPVLVIYYDSDRPSGIPERFSGSNSGNTATLTISRVEAGDEADYYCQVWDSSSDHYVFGTGTKVTVLG"
  MFI: 27700
